Assignment: determine reported SPOT peptide array binding signal intensity for the given binders.
- test_system: ScBbc1
- assay_info: SPOT peptide array binding signal intensity (averaged, normalized) (arbitrary units (background-subtracted, floor 0; scale differs between SH3 domains)); higher = stronger binding of the SH3 domain to the peptide
Give bare numbers.

Respectfully, I request SPOT peptide array binding signal intensity for each entry included below.
1. KRNRLKILLPFLEQS
2. LLRRTIPKRPFYHVL
3. VRVKKRPLIRPLNSS

A)
[2.5, 25.5, 82]
